- measurement-protocol: TLR3 IRF3 reporter activation blockers – cell-based, poly I:C stimulus, luciferase, 10K MLSCN set, primary screen (AID 602277)
- applied-conditions: HEK293-TLR3 RL24 IRF3 luciferase reporter, at 10 µM, stronger effect = higher value
Would you mind labelling by inhibition? At or over 10% is True, under is False.

Record excerpt, results attached:
# molecule, class-assignment
measured = [
    ("O=C(CN1C(=O)COc2ccccc21)NCCN1CCc2ccccc2C1", "True"),
    ("O=C(Nc1ccc(N2CCCC2)cc1)c1ccc(Br)o1", "False"),
]

query: Hello, I need to know if `CCOC(=O)CSc1nc2sc(C)c(C)c2c(=O)[nH]1` has measured inhibition not below 10%. Thanks!
result: False

query: Hello, I need to know if `CCOc1ccc(NCCC(=O)c2ccc3c(c2)OCO3)cc1` has measured inhibition not below 10%. Thanks!
result: True

query: Hello, I need to know if Cc1nn(Cc2ccccc2Cl)c(C)c1NC(=O)C1C2CCC(O2)C1C(=O)O (stereo not given) has measured inhibition not below 10%. Thanks!
result: False
